Target: T1, pKal (Homo sapiens, UniProt P03952)
T1 construct: two disulfide linked polypeptides; a heavy chain of approximately 52 kDa and a catalytic domain of approximately 34 kDa; host or cells: human plasma
T1 sequence (P03952 391-638 limits assumed): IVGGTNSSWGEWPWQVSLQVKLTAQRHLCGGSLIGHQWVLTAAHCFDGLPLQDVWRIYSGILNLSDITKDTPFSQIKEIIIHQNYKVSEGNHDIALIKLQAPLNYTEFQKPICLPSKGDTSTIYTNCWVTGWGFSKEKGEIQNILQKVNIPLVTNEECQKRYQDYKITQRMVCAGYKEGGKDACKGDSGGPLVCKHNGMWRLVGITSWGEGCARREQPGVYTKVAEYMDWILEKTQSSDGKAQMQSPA
T1 sequence (P03952 20-390 partner limits assumed): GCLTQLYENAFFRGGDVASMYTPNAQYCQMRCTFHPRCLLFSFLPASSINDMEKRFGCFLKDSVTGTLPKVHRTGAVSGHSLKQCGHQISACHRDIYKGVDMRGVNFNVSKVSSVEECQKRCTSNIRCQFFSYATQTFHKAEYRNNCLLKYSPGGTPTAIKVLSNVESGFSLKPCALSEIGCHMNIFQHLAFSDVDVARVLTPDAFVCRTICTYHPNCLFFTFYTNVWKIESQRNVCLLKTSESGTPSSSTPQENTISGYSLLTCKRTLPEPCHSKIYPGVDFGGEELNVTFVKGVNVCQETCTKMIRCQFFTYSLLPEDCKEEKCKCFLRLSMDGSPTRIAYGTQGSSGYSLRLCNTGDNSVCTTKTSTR
Assay: Fab fragments (small scale) tested for inhibition against human pKal in an in vitro protease cleavage assay
Format: biochemical
Conditions: Table 9
quantity: Inhibit as a Fab?

>>> experimentalvalue("X67-G09: single point mutation of M142-H08 (P2); HV-CDR3 GGLLLWLRELKSNYFDY (antibody, V domains shown) VL: QDIQMTQSPSSLSAFVGDRVTITCRASQPIDNYLNWYHQKPGKAPKLLIYAASRLQSGVPSRLSGSGFGTDFTLTISSLQPEDFGNYYCQQSYTVPYTFGGGTKVEIR VH: EVQLLESGGGLVQPGGSLRLSCAASGFTFSAYSMIWVRQAPGKGLEWVSYIRPSGGRTTYADSVKGRFTISRDNSKNTLYLQMNSLRAEDTAVYYCARGGLLLWLRELKSNYFDYWGQGTLVTVSSASTKGPSVFPLAPSSKS")
"Yes"
>>> experimentalvalue("X69-B02: single point mutation of M142-H08 (P1′); HV-CDR3 GGLLLWFRCLKSNYFDY (antibody, V domains shown) VL: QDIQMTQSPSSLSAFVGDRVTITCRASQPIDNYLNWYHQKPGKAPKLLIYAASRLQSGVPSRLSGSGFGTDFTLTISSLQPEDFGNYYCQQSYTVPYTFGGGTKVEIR VH: EVQLLESGGGLVQPGGSLRLSCAASGFTFSAYSMIWVRQAPGKGLEWVSYIRPSGGRTTYADSVKGRFTISRDNSKNTLYLQMNSLRAEDTAVYYCARGGLLLWFRCLKSNYFDYWGQGTLVTVSSASTKGPSVFPLAPSSKS")
"No"
